Origin of measurements: PubChem BioAssay AID1578

assay.protocol: NOD1 signaling inhibitors, primary screen, cell-based, luminescence, uHTS (AID 1578);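 also: HEK-293T reporter cells stimulated with the NOD1 agonist gamma-tri-DAP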
details: NOD1-driven NF-kB luciferase reporter cells, at 4 µM, active compounds read high
The campaign covered roughly 290,000 compounds. About 3,000 (1%) were called active. The sample holds actives, similar compounds and a random draw of the others, so the mix is not that of the screen.
Catalogue of inhibition readings, one per entry.
observed.property: inhibition (%)

* Cc1cc(C(=O)CSc2nnc(-c3ccco3)o2)c(C)n1Cc1ccco1 | 3.1
* COc1ccc(C(=O)NCCCc2nc3ccccc3n2Cc2cc(C)ccc2C)cc1OC | -28.5
* NS(=O)(=O)c1ccc(CNC(=O)CSc2ccccc2)cc1 | -19.9
* Cc1ccc([N+](=O)[O-])cc1NC(=O)CN(C1CCCCC1)S(=O)(=O)c1ccc(Cl)cc1 | -5
